# EXPERIMENT NOTES: Prodrug conversion in simulated gastric fluid assessed as half life
# Assay type: ADME
# APPLIED CONDITIONS: simulated gi fluid
I'd appreciate it if you could supply t1/2 values for the items below.
Enter your answer as a number in h; do not include the unit.

[in] # input compound: CCOc1cc(NC(=O)C2(NC(=O)c3ccc4c(C5CCCC5)c(-c5ncc(Cl)cn5)n(C)c4c3)CCC2)ccc1/C=C/C(=O)OCc1ccccc1 ; wanted: its t1/2
[out] 1.83

[in] Try this compound too: CCOc1cc(NC(=O)C2(NC(=O)c3ccc4c(C5CCCC5)c(-c5ncc(Cl)cn5)n(C)c4c3)CCC2)ccc1/C=C/C(=O)OC
[out] 2.5

[in] Try this compound too: CCOc1cc(NC(=O)C2(NC(=O)c3ccc4c(C5CCCC5)c(-c5ncc(Cl)cn5)n(C)c4c3)CCC2)ccc1/C=C/C(=O)OCC(=O)OCc1ccccc1
[out] 3.03

[in] Try this compound too: CCOc1cc(NC(=O)C2(NC(=O)c3ccc4c(C5CCCC5)c(-c5ncc(Cl)cn5)n(C)c4c3)CCC2)ccc1/C=C/C(=O)OCOP(=O)(O)O
[out] 1.3

[in] Try this compound too: CCOc1cc(NC(=O)C2(NC(=O)c3ccc4c(C5CCCC5)c(-c5ncc(Cl)cn5)n(C)c4c3)CCC2)ccc1/C=C/C(=O)OCCN(C)C
[out] 1.82

---

# EXPERIMENT NOTES: Prodrug conversion in simulated gastric fluid assessed as half life
# Assay type: ADME
# APPLIED CONDITIONS: simulated gi fluid
I'd appreciate it if you could supply t1/2 values for the items below.
Enter your answer as a number in min; do not include the unit.

[in] # input molecule: CCOc1cc(NC(=O)C2(NC(=O)c3ccc4c(C5CCCC5)c(-c5ncc(Cl)cn5)n(C)c4c3)CCC2)ccc1/C=C/C(=O)N[C@@H](CCCNC(=N)N)C(N)=O ; wanted: its t1/2
[out] 28

[in] Try this molecule too: CCOc1cc(NC(=O)C2(NC(=O)c3ccc4c(C5CCCC5)c(-c5ncc(Cl)cn5)n(C)c4c3)CCC2)ccc1/C=C/C(=O)OCCN1CCOCC1
[out] 20

[in] Try this molecule too: CCCOC(=O)/C=C/c1ccc(NC(=O)C2(NC(=O)c3ccc4c(C5CCCC5)c(-c5ncc(Cl)cn5)n(C)c4c3)CCC2)cc1OCC
[out] 134

---

# Test system: Liver microsome
# EXPERIMENT NOTES: Prodrug conversion in rat liver microsomes assessed as half life
I'd appreciate it if you could supply t1/2 values for the items below.
Enter your answer as a number in min; do not include the unit.

[in] # input molecule: CCOc1cc(NC(=O)C2(NC(=O)c3ccc4c(C5CCCC5)c(-c5ncc(Cl)cn5)n(C)c4c3)CCC2)ccc1/C=C/C(=O)OCC(=O)N(C)C(C)C ; wanted: its t1/2
[out] 16

[in] Try this molecule too: CCCCOC(=O)COC(=O)/C=C/c1ccc(NC(=O)C2(NC(=O)c3ccc4c(C5CCCC5)c(-c5ncc(Cl)cn5)n(C)c4c3)CCC2)cc1OCC
[out] 947

[in] Try this molecule too: CCCCCCOC(=O)/C=C/c1ccc(NC(=O)C2(NC(=O)c3ccc4c(C5CCCC5)c(-c5ncc(Cl)cn5)n(C)c4c3)CCC2)cc1OCC
[out] 764

[in] Try this molecule too: CCCOC(=O)/C=C/c1ccc(NC(=O)C2(NC(=O)c3ccc4c(C5CCCC5)c(-c5ncc(Cl)cn5)n(C)c4c3)CCC2)cc1OCC
[out] 21

[in] Try this molecule too: CCCN(C)C(=O)COC(=O)/C=C/c1ccc(NC(=O)C2(NC(=O)c3ccc4c(C5CCCC5)c(-c5ncc(Cl)cn5)n(C)c4c3)CCC2)cc1OCC
[out] 19

[in] Try this molecule too: CCOc1cc(NC(=O)C2(NC(=O)c3ccc4c(C5CCCC5)c(-c5ncc(Cl)cn5)n(C)c4c3)CCC2)ccc1/C=C/C(=O)OCC(=O)NC
[out] 30

---

I'd appreciate it if you could supply AUC values for the items below.
# Test system: Rattus norvegicus
# EXPERIMENT NOTES: AUC in rat plasma assessed as (E)-3-(4-(1-(2-(5-chloropyrimidin-2-yl)-3-cyclopentyl-1-methyl-1H-indole-6-carboxamido)cyclobutanecarboxamido)-2-ethoxyphenyl)acrylic acid at 10 mg/kg, po using 0.5% Methyl cellulose, 0.3% Tween-80, 1% N-methylpyrrolidone in water vehicle
# Type: ADME, organism-based
# Set-up: dose 10 mg/kg, route oral
# APPLIED CONDITIONS: in vivo
Answer as a quantity: numeral, then unit.

[in] # input molecule: CCOc1cc(NC(=O)C2(NC(=O)c3ccc4c(C5CCCC5)c(-c5ncc(Cl)cn5)n(C)c4c3)CCC2)ccc1/C=C/C(=O)O ; wanted: its AUC
[out] 25.5 µM·h

[in] Try this molecule too: CCOc1cc(NC(=O)C2(NC(=O)c3ccc4c(C5CCCC5)c(-c5ncc(Cl)cn5)n(C)c4c3)CCC2)ccc1/C=C/C(=O)OCOP(=O)(O)O
[out] 14.5 µM·h

[in] Try this molecule too: CCOc1cc(NC(=O)C2(NC(=O)c3ccc4c(C5CCCC5)c(-c5ncc(Cl)cn5)n(C)c4c3)CCC2)ccc1/C=C/C(=O)OC
[out] 5.7 µM·h

[in] Try this molecule too: CCOc1cc(NC(=O)C2(NC(=O)c3ccc4c(C5CCCC5)c(-c5ncc(Cl)cn5)n(C)c4c3)CCC2)ccc1/C=C/C(=O)OCOP(=O)(O)OC(C)(C)C
[out] 0.49 µM·h

---

# Test system: Liver microsome
# EXPERIMENT NOTES: Prodrug conversion in human liver microsomes assessed as half life
ASSAY READOUT: t1/2

[in] # input molecule: CCOc1cc(NC(=O)C2(NC(=O)c3ccc4c(C5CCCC5)c(-c5ncc(Cl)cn5)n(C)c4c3)CCC2)ccc1/C=C/C(=O)OCCOc1ccccc1 ; wanted: its t1/2
[out] > 5 h

[in] Try this molecule too: CCOC(=O)/C=C/c1ccc(NC(=O)C2(NC(=O)c3ccc4c(C5CCCC5)c(-c5ncc(Cl)cn5)n(C)c4c3)CCC2)cc1OCC
[out] > 5 h

[in] Try this molecule too: CCOc1cc(NC(=O)C2(NC(=O)c3ccc4c(C5CCCC5)c(-c5ncc(Cl)cn5)n(C)c4c3)CCC2)ccc1/C=C/C(=O)OCC(Cl)(Cl)Cl
[out] > 5 h

---

# System: Intestine
# EXPERIMENT NOTES: Prodrug conversion in rat intestinal microsomes assessed as half life
ASSAY READOUT: t1/2

[in] # input compound: CCCOC(=O)/C=C/c1ccc(NC(=O)C2(NC(=O)c3ccc4c(C5CCCC5)c(-c5ncc(Cl)cn5)n(C)c4c3)CCC2)cc1OCC ; wanted: its t1/2
[out] > 300 min

[in] Try this compound too: CCOC(=O)/C=C/c1ccc(NC(=O)C2(NC(=O)c3ccc4c(C5CCCC5)c(-c5ncc(Cl)cn5)n(C)c4c3)CCC2)cc1OCC
[out] > 300 min

[in] Try this compound too: CCOc1cc(NC(=O)C2(NC(=O)c3ccc4c(C5CCCC5)c(-c5ncc(Cl)cn5)n(C)c4c3)CCC2)ccc1/C=C/C(=O)OCC(=O)OCc1ccccc1
[out] > 300 min

---

# Test system: Intestine
# EXPERIMENT NOTES: Prodrug conversion in rat intestinal microsomes assessed as half life
I'd appreciate it if you could supply t1/2 values for the items below.

[in] # input molecule: CCOc1cc(NC(=O)C2(NC(=O)c3ccc4c(C5CCCC5)c(-c5ncc(Cl)cn5)n(C)c4c3)CCC2)ccc1/C=C/C(=O)OCc1ccccc1 ; wanted: its t1/2
[out] > 5 h

[in] Try this molecule too: CCOc1cc(NC(=O)C2(NC(=O)c3ccc4c(C5CCCC5)c(-c5ncc(Cl)cn5)n(C)c4c3)CCC2)ccc1/C=C/C(=O)OCCC(C)C
[out] > 5 h

[in] Try this molecule too: CCOc1cc(NC(=O)C2(NC(=O)c3ccc4c(C5CCCC5)c(-c5ncc(Cl)cn5)n(C)c4c3)CCC2)ccc1/C=C/C(=O)OCC(Cl)(Cl)Cl
[out] > 5 h

---

# EXPERIMENT NOTES: Prodrug conversion in human intestinal microsomes assessed as half life
ASSAY READOUT: t1/2

[in] # input compound: CCOc1cc(NC(=O)C2(NC(=O)c3ccc4c(C5CCCC5)c(-c5ncc(Cl)cn5)n(C)c4c3)CCC2)ccc1/C=C/C(=O)OCCN(C)C ; wanted: its t1/2
[out] > 5 h

[in] Try this compound too: CCOC(=O)/C=C/c1ccc(NC(=O)C2(NC(=O)c3ccc4c(C5CCCC5)c(-c5ncc(Cl)cn5)n(C)c4c3)CCC2)cc1OCC
[out] > 5 h

[in] Try this compound too: CCOc1cc(NC(=O)C2(NC(=O)c3ccc4c(C5CCCC5)c(-c5ncc(Cl)cn5)n(C)c4c3)CCC2)ccc1/C=C/C(=O)OC
[out] 9.07 h

[in] Try this compound too: CCCOC(=O)/C=C/c1ccc(NC(=O)C2(NC(=O)c3ccc4c(C5CCCC5)c(-c5ncc(Cl)cn5)n(C)c4c3)CCC2)cc1OCC
[out] > 5 h

[in] Try this compound too: CCOc1cc(NC(=O)C2(NC(=O)c3ccc4c(C5CCCC5)c(-c5ncc(Cl)cn5)n(C)c4c3)CCC2)ccc1/C=C/C(=O)OCCN1CCOCC1
[out] 15.2 h

[in] Try this compound too: CCOc1cc(NC(=O)C2(NC(=O)c3ccc4c(C5CCCC5)c(-c5ncc(Cl)cn5)n(C)c4c3)CCC2)ccc1/C=C/C(=O)OCc1ccccc1
[out] > 5 h

[in] Try this compound too: CCOc1cc(NC(=O)C2(NC(=O)c3ccc4c(C5CCCC5)c(-c5ncc(Cl)cn5)n(C)c4c3)CCC2)ccc1/C=C/C(=O)OCC(Cl)(Cl)Cl
[out] > 5 h

[in] Try this compound too: CCOc1cc(NC(=O)C2(NC(=O)c3ccc4c(C5CCCC5)c(-c5ncc(Cl)cn5)n(C)c4c3)CCC2)ccc1/C=C/C(=O)OCOP(=O)(O)O
[out] 0.467 h
